Molecular target: T1, EsCas13d, nuclease-dead (Eubacterium siraeum, UniProt B0MS50, R295A;H300A;R849A;H854A)
T1 sequence: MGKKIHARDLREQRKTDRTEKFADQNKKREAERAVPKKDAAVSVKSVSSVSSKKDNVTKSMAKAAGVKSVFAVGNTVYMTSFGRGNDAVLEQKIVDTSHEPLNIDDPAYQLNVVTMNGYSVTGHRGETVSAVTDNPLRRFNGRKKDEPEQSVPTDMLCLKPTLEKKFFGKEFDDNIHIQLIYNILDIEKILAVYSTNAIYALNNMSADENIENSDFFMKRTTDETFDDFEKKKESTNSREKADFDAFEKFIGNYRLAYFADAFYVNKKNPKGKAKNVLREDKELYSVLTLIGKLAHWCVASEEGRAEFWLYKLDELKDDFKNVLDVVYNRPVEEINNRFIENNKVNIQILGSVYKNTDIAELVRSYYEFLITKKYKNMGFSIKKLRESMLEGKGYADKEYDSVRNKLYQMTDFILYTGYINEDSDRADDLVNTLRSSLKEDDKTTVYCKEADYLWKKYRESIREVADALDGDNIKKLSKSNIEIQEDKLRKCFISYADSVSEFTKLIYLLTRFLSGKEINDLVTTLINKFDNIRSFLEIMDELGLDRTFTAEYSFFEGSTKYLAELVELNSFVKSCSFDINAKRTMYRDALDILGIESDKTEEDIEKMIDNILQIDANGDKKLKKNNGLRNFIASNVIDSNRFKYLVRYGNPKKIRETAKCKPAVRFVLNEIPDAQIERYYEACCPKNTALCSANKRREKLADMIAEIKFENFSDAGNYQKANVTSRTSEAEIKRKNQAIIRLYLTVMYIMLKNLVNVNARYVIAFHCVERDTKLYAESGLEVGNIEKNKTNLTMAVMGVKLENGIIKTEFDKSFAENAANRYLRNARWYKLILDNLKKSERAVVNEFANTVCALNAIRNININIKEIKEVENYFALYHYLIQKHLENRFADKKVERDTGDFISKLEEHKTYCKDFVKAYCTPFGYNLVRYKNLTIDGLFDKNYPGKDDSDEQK
Assay: crRNA (strand 1, pre-loaded); Mg2+; 40 mM Tris-HCl pH 7.5, 150 mM NaCl, 6 mM MgCl2, 1 mM DTT, 0.1% Tween-20, 0.2 mg/ml BSA; 25 C; 10 min per concentration, then washed
Details: tags: His6-TwinStrep-SUMO cleaved; N-terminal SNAP kept (SNAP-Surface 488); label: 3' end held by stalled T7 RNA polymerase
assay-endpoint: pKd
On this scale, pKd is minus log10 of a concentration expressed in M (mol/L).

binder | assay-endpoint | observed
target 1 U3G,G17A (mixed) RNA 1: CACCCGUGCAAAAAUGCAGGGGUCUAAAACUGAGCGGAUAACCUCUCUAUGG RNA 2: GGGAAUGGAUCCACAUCUACGAAUUCGUACCAUAAAGAGGUUAUCCGCGCACCGAGAUCGGAAGAGCACACGU | pKd | 7.43
target 1 G5U,A9G (mixed) RNA 1: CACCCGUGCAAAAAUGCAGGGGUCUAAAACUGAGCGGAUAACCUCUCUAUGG RNA 2: GGGAAUGGAUCCACAUCUACGAAUUCGUACCAUAGAGAGGUUGUCCUCUCACCGAGAUCGGAAGAGCACACGU | pKd | 7.57
target 1 insA 3' of 12,insG 3' of 9 (mixed) RNA 1: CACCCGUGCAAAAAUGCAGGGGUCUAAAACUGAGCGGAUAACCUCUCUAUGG RNA 2: GGGAAUGGAUCCACAUCUACGAAUUCGUACCAUAGAGAGGAUUAGUCCGCUCACCGAGAUCGGAAGAGCACACGU | pKd | 7.33

// field: pKd; key: target 1 G13A,G15C (mixed) RNA 1: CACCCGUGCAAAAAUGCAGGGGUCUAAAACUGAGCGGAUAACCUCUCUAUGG RNA 2: GGGAAUGGAUCCACAUCUACGAAUUCGUACCAUAGACAAGUUAUCCGCUCACCGAGAUCGGAAGAGCACACGU ; value = 7.44
